Values compiled from ChEMBL document CHEMBL5303304.

Provide the recorded Growth Rate for the entries that follow.
Test system: HEK-293T
Assay: Incucyte cell viability with HEK293T; note: unitless GR value; below 1 slowed growth and below 0 cell loss
Type: toxicity, cell-based
Settings: human, 24 h, 10 µM, compound concentration 10 uM, replicate number 2
Quick one: just the number, no unit, thanks!

Task: Entry under review: C=CC(=O)N1CCC[C@@H](n2nc(-c3ccc(Oc4ccccc4)cc3)c3c(N)ncnc32)C1 . Reported Growth Rate?
Result: 0.25

Task: Entry under review: N[C@H](C(=O)O)[C@@H]1CC(Cl)=NO1 . Reported Growth Rate?
Result: 0.37

Task: Entry under review: CC(C)(O)C(=O)N1CCN(c2ccc(C(F)(F)F)c(C3=C(c4c[nH]c5ccccc45)C(=O)NC3=O)c2)CC1 . Reported Growth Rate?
Result: 0.42

Task: Entry under review: CN1CCN(c2ccc(C(=O)Nc3n[nH]c4ccc(Cc5cc(F)cc(F)c5)cc34)c(NC3CCOCC3)c2)CC1 . Reported Growth Rate?
Result: -0.42

Task: Entry under review: C[C@@H]1CC(=O)N(C2CC2)N=C1c1ccc(NC(=O)N2Cc3ccncc3C2)cc1 . Reported Growth Rate?
Result: 0.32

Task: Entry under review: CCN(C)S(=O)(=O)Nc1cccc(-c2ccc3c(NC(=O)C4CC4)n[nH]c3c2)c1 . Reported Growth Rate?
Result: -0.21

Task: Entry under review: CN1CCC(F)(Cn2cnc(-c3ccc(F)cn3)c2-c2ccnc3[nH]ccc23)CC1 . Reported Growth Rate?
Result: 0.74

Task: Entry under review: CNc1nc(Nc2ccc(C(=O)N3CCOCC3)cc2OC)nc2[nH]cc(Cl)c12 . Reported Growth Rate?
Result: 0.24

Task: Entry under review: CC(C)(C)OC(=O)CN(Cc1ccc(Cl)cc1)Cc1ccc([N+](=O)[O-])s1 . Reported Growth Rate?
Result: 0.92

Task: Entry under review: C[C@@H]1CC[C@@]2(OC1)O[C@H]1[C@@H](O)[C@H]3[C@@H]4CC[C@H]5C[C@@H](O[C@@H]6O[C@H](CO)[C@H](O[C@@H]7O[C@H](CO)C(O)[C@H](O[C@@H]8OC[C@@H](O)[C@H](O)[C@H]8O)[C@H]7O[C@@H]7O[C@H](CO)[C@H](O)[C@H](O[C@@H]8O[C@H](CO)[C@@H](O)[C@H](O)[C@H]8O)[C@H]7O)[C@H](O)[C@H]6O)[C@H](O)C[C@]5(C)[C@H]4CC[C@]3(C)[C@H]1[C@@H]2C (stereo not given in full) . Reported Growth Rate?
Result: 0.72

Task: Entry under review: NC(=O)c1ccc2[nH]c(-c3ccc(Oc4ccc(Cl)cc4)cc3)nc2c1 . Reported Growth Rate?
Result: 0.98

Task: Entry under review: Cn1ncnc1COc1nn2c(-c3cc(F)ccc3F)nnc2cc1C(C)(C)C . Reported Growth Rate?
Result: 0.88

Task: Entry under review: NCC1CCC(CNc2nc(NCc3ccccc3OC(F)(F)F)ncc2[N+](=O)[O-])CC1 (stereo not given) . Reported Growth Rate?
Result: 0.1

Task: Entry under review: Cc1[nH]nc2ccc(-c3cncc(OCC(N)Cc4ccccc4)c3)cc12 (stereo not given) . Reported Growth Rate?
Result: 0.21

Task: Entry under review: O=C(Nc1ccc(S(=O)(=O)Nc2nccs2)cc1)C(c1ccccc1)c1ccccc1 . Reported Growth Rate?
Result: 0.9

Task: Entry under review: O=C(O)c1ccnc(N2CC(O)(c3ccc(OCc4c(-c5c(Cl)cccc5Cl)noc4C4CC4)cc3Cl)C2)c1 [CILOFEXOR] . Reported Growth Rate?
Result: 1

Task: Entry under review: CC(C)c1nc2c(c3c1[C@@H](c1ccc(C(F)(F)F)cc1)OC31CCOCC1)[C@@H](O)CC(C)(C)C2.Cl . Reported Growth Rate?
Result: 0.8

Task: Entry under review: CNCc1ccc(-c2cc(-c3nc(-c4ccc(S(=O)(=O)C(C)C)cc4)cnc3N)on2)cc1 . Reported Growth Rate?
Result: -0.26

Task: Entry under review: CC(=O)c1ccc2c(c1)/C(=C(/Nc1cccc(C#N)c1)c1ccc3c(c1)OCCO3)C(=O)N2 . Reported Growth Rate?
Result: -0.02

Task: Entry under review: CCOC(=O)Nc1ccc2c(c1)N(C(=O)CN(CC)CC)c1ccccc1CC2 . Reported Growth Rate?
Result: 0.92

Task: Entry under review: CO[C@H]1C[C@@H]2CC[C@@H](C)[C@@](O)(O2)C(=O)C(=O)N2CCCC[C@H]2C(=O)O[C@H]([C@H](C)C[C@@H]2CC[C@@H](O)[C@H](OC)C2)CC(=O)[C@H](C)/C=C(\C)[C@@H](O)[C@@H](OC)C(=O)[C@H](C)C[C@H](C)/C=C/C=C/C=C/1C . Reported Growth Rate?
Result: 0.3

Task: Entry under review: O=C(N[C@H]1CN2CCC1CC2)c1ccc(Cl)cc1 . Reported Growth Rate?
Result: 1

Task: Entry under review: CC(C)n1cnc2c(Nc3cccc(Cl)c3)nc(N[C@H]3CCCC[C@@H]3N)nc21 . Reported Growth Rate?
Result: -0.25

Task: Entry under review: COc1cc(Nc2cnc(C#N)c(O[C@H](C)CN(C)C)n2)ncc1-c1cnn(C)c1 . Reported Growth Rate?
Result: -0.22

Task: Entry under review: Cl.Cl.Fc1ccc([C@@H]2CCNC[C@H]2COc2ccc3c(c2)OCO3)cc1.Fc1ccc([C@@H]2CCNC[C@H]2COc2ccc3c(c2)OCO3)cc1.O [PAROXETINE HYDROCHLORIDE] . Reported Growth Rate?
Result: 0.86

Task: Entry under review: Cn1ncc(NC(=O)c2nc(-c3c(F)cccc3F)sc2N)c1N1CC[C@@H](N)[C@H](F)CC1 . Reported Growth Rate?
Result: 0.77

Task: Entry under review: COc1ccc(-c2cc3c(C)nc(N)nc3n([C@H]3CC[C@H](OCCO)CC3)c2=O)cn1 . Reported Growth Rate?
Result: -0.25

Task: Entry under review: CC(C)(C)C1CCc2c(sc(NC(=O)c3ccco3)c2C(=O)O)C1 (stereo not given) . Reported Growth Rate?
Result: -0.13

Task: Entry under review: CC(=O)NCC(=O)N1[C@@H]2CC[C@H]1c1ccc(Nc3ncc(C(F)(F)F)c(NC4CCC4)n3)cc12 . Reported Growth Rate?
Result: -0.39

Task: Entry under review: CN[C@@H](C)C(=O)N[C@H](C(=O)N1CCC[C@H]1C(=O)Nc1sc(-c2ncco2)nc1-c1ccccc1)C1CCCCC1 . Reported Growth Rate?
Result: 0.99

====

Tested on: HEK-293T
Assay: Incucyte cell viability with HEK293T; note: unitless GR value; below 1 slowed growth and below 0 cell loss
Assay type: toxicity, cell-based
Conditions: human, 24 h, 10 µM, compound concentration 10 uM, replicate number 1
Measured parameter: Growth Rate
Quick one: just the number, no unit, thanks!

Task: Entry under review: Cc1cc(NC(=O)c2cccc(NC(=O)/C=C/CN(C)C)c2)ccc1Nc1nccc(-c2cccnc2)n1 . Reported Growth Rate?
Result: -0.19

Task: Entry under review: CN[C@@H](C)C(=O)N[C@H](C(=O)N1CCC[C@H]1c1nc(C(=O)c2ccc(F)cc2)cs1)C1CCCCC1 . Reported Growth Rate?
Result: 0.84

Task: Entry under review: CCN1CCN(Cc2ccc(NC(=O)c3ccc(C)c(Oc4ccnc5[nH]ccc45)c3)cc2C(F)(F)F)CC1.Cl.Cl.Cl.O . Reported Growth Rate?
Result: -0.63

Task: Entry under review: Cc1c(C(=O)NCCCN(C)C)sc2ncnc(Nc3ccc(F)cc3OC(C)CF)c12 (stereo not drawn) . Reported Growth Rate?
Result: 0.07

Task: Entry under review: CNC(=O)c1cccc(-c2ccc3c(N4CCOC[C@@H]4C)nc(N4CCOC[C@@H]4C)nc3n2)c1 . Reported Growth Rate?
Result: -0.18

Task: Entry under review: O=C(N[C@H]1CCCCC/C=C\C2C[C@@]2(C(=O)O)NC(=O)[C@@H]2C[C@@H](Oc3ccncc3)CN2C1=O)OC1CCCC1 (stereo partly drawn) . Reported Growth Rate?
Result: 0.94

Task: Entry under review: CCn1c(-c2ccncc2)cc2c1CCNC2=O . Reported Growth Rate?
Result: -0.56

Task: Entry under review: O=C(Cc1ccccc1)Nc1nnc(N2CC[C@@H]3[C@H]2CN3c2cccnn2)s1 . Reported Growth Rate?
Result: 0.85

====

System: HEK-293T
Assay: Incucyte cell viability with HEK293T; note: unitless GR value; below 1 slowed growth and below 0 cell loss
Assay type: toxicity, cell-based
Conditions: human, 0 h, 10 µM, compound concentration 10 uM, replicate number 2
Provide the recorded Growth Rate for the entries that follow.
Quick one: just the number, no unit, thanks!

Task: Entry under review: CCOC(=O)CS(=O)(=O)c1ccc([C@@H](CO)NC(=O)c2cc3c(Cl)c(Cl)c(C)cc3n2C)cc1 . Reported Growth Rate?
Result: 0.13

Task: Entry under review: O=C1c2c(Br)c(Br)c(Br)c(Br)c2C(=O)N1c1ncc[nH]1 . Reported Growth Rate?
Result: 0.63

Task: Entry under review: COc1cc(Nc2ccc([N+](=O)[O-])cc2C(=O)O)cc2ccccc12 . Reported Growth Rate?
Result: 0.13

Task: Entry under review: O=C1Nc2nc(-c3c(O)cccc3OCC3CC3)cc([C@@H]3CCCNC3)c2CO1 . Reported Growth Rate?
Result: -0.36

Task: Entry under review: CN1CCN(C(=O)c2ccc(N(C)c3ncc(C(F)(F)F)c(N[C@@H]4CCC[C@@H]4C(N)=O)n3)cc2)CC1.Cl . Reported Growth Rate?
Result: 0.56

Task: Entry under review: CC/C(=C(\c1ccccc1)c1ccc(OCCN(C)C)cc1)c1ccccc1.O=C(O)CC(O)(CC(=O)O)C(=O)O [TAMOXIFEN CITRATE] . Reported Growth Rate?
Result: -0.98

Task: Entry under review: COCCOCn1c(S(C)(=O)=O)nc2c1c(=O)n(C)c(=O)n2C . Reported Growth Rate?
Result: 0.7

Task: Entry under review: N#Cc1ccc(C#CC[C@@H](C#N)NC(=O)[C@H]2CCCCN2)cc1F.O=C(O)C(F)(F)F . Reported Growth Rate?
Result: -0.1

Task: Entry under review: C=CC(=O)N1CCC[C@@H](n2nc(C(=O)Nc3ccc(CC(=O)N(C)C)c(C)c3C)c3c(N)ncnc32)C1 . Reported Growth Rate?
Result: -0.68

Task: Entry under review: Cn1c(C(=O)N[C@@H](CO)c2ccc(C(=O)O)cc2)cc2cc(Cl)ccc21 . Reported Growth Rate?
Result: 0.28

Task: Entry under review: CN(C)C/C=C/C(=O)Nc1cccc(C(=O)Nc2ccc(Nc3nccc(-c4cccnc4)n3)cc2)c1 . Reported Growth Rate?
Result: 0.56

Task: Entry under review: C[C@@H]1CC(=O)N(C2CC2)N=C1c1ccc(NC(=O)N2Cc3ccncc3C2)cc1 . Reported Growth Rate?
Result: -0.07

Task: Entry under review: Cc1cn([C@@H](C)CC#N)c(=O)c2cc(Cn3nc(C(F)F)cc3Cl)nn12 . Reported Growth Rate?
Result: 0.77

Task: Entry under review: COc1ccc(CC[C@@H](OC(=O)[C@H]2CCCCN2C(=O)[C@@H](c2cc(OC)c(OC)c(OC)c2)C2CCCCC2)c2cccc(OCCN3CCOCC3)c2)cc1OC . Reported Growth Rate?
Result: -0.05

Task: Entry under review: CC[C@H](CC(=O)O)n1c(=O)c2ncccc2n(Cc2cn(C)c3cc(C)cc(C)c23)c1=O [BI-1942] . Reported Growth Rate?
Result: -0.53

Task: Entry under review: CC(C)[C@H](C(=O)Nc1ccc(C(=O)NO)cc1)c1ccccc1 [AR-42] . Reported Growth Rate?
Result: 0.49

Task: Entry under review: O=C(/N=c1\sccn1Cc1ccccc1)c1c[nH]c2ncccc12 . Reported Growth Rate?
Result: -0.86

Task: Entry under review: COc1cc2c(cc1CC=C(C)C)C(=O)C[C@@H](c1ccc(O)cc1)O2 [BAVACHININ A] . Reported Growth Rate?
Result: -0.67

Task: Entry under review: CC(C)c1cnc(NC(=O)Cc2ccccc2)s1 . Reported Growth Rate?
Result: 1

Task: Entry under review: COc1cc(NC(=O)c2ccc(-c3ccc(Cl)cc3)o2)cc(OC)c1 . Reported Growth Rate?
Result: 0.52

Task: Entry under review: CN1CCN(c2nc(C3=C(c4c[nH]c5ccccc45)C(=O)NC3=O)c3ccccc3n2)CC1 [SOTRASTAURIN] . Reported Growth Rate?
Result: -0.61

Task: Entry under review: COCCN(C)c1ccc(NC(=O)/C=C(\C)c2ccc3ccccc3c2)c(C(=O)O)c1 . Reported Growth Rate?
Result: -0.37

Task: Entry under review: CCN1C(=CC(C)=O)Sc2ccc(OC)cc21 . Reported Growth Rate?
Result: 0.69

Task: Entry under review: Cn1c2ccccc2c2c3c(c4c5ccccc5n(CCC#N)c4c21)CNC3=O [GO-6976] . Reported Growth Rate?
Result: -0.13

Task: Entry under review: Cc1nc2cccnc2n2c(-c3cc(C(C)(C)O)ncc3Cl)nnc12 . Reported Growth Rate?
Result: -0.52

Task: Entry under review: Cc1cc2c(-c3ccco3)cnc(N[C@H]3CCN(C)C[C@@H]3C(=O)NC3CCCCC3)c2[nH]c1=O [GSK791] . Reported Growth Rate?
Result: -0.74

Task: Entry under review: CC(C(=O)Nc1cc(C#N)ccc1CCCC(=O)O)c1ccc(F)c2ccccc12 (configuration not stated) . Reported Growth Rate?
Result: 0.28

Task: Entry under review: C[C@H](c1ccnc(Nc2nc3ccc(-c4cc(N(C)C)ncn4)cc3[nH]2)c1)N1CCN(C(=O)CC(F)(F)F)CC1 [BAY-985] . Reported Growth Rate?
Result: 0.27

Task: Entry under review: CO[C@@H](C)CN1CC[C@]2(C)c3cc(O)ccc3C[C@H]1C2(C)C.Cl . Reported Growth Rate?
Result: 0.15

Task: Entry under review: COc1ccc(C(F)(F)F)cc1NC(=O)Nc1ccc(Oc2cc(C)nc(N)n2)c2ccccc12 . Reported Growth Rate?
Result: -0.09

Task: Entry under review: O=c1ccc2c(OCCCCOc3ccccc3)c3ccoc3cc2o1 . Reported Growth Rate?
Result: 0.37

Task: Entry under review: O=C(Nc1ccc(-n2nc(-c3cccnc3)cc2C(F)(F)F)cn1)c1ccc(-c2ccccc2)c(F)c1 [BI 2049] . Reported Growth Rate?
Result: 0.47

Task: Entry under review: Cn1c(=O)n(CCCO)c(=O)c2c1nc(Oc1cccc(OC(F)(F)F)c1)n2Cc1ccc(Cl)cc1 [ZERENCOTREP] . Reported Growth Rate?
Result: 0.33

Task: Entry under review: COc1cc(N(C)c2ccnc3ccc(C(F)(F)F)cc23)cc(OC)c1OC . Reported Growth Rate?
Result: -1

Task: Entry under review: CCCCc1c(-c2ccccc2)nc(N)nc1-c1ccc(OCc2ccccc2)c(F)c1F . Reported Growth Rate?
Result: -0.46

Task: Entry under review: CCN1CCN(Cc2ccc(Nc3ncc(F)c(-c4cc(F)c5nc(C)n(C(C)C)c5c4)n3)nc2)CC1.CS(=O)(=O)O . Reported Growth Rate?
Result: 0.21

Task: Entry under review: Cn1cc(-c2ccc(N(C(=O)NCc3ccccc3)[C@H]3CC[C@H](Nc4ccc(C#N)cn4)CC3)cc2)ccc1=O . Reported Growth Rate?
Result: 0.96
